Molecular target: UniProt:P06766
Experiment: Activity of rat DNA polymerase beta using variable levels of [3H]TTP substrate by Lineweaver-Burke plot
Readings of Kis for the listed compounds

Below, 5 compounds whose answers are already recorded.
compound="CC1(C)[C@H](O)CC[C@]2(C)[C@H]3CC=C4[C@@H]5C[C@](C)(C(=O)O)CC[C@]5(C)CC[C@@]4(C)[C@]3(C)CC[C@@H]12 [KATONIC ACID]" reported_property=Kis value_observed="60 µM"
compound=CC1(C)/C(=N\OCc2ccccc2)CC[C@]2(C)[C@H]3CC=C4[C@@H]5C[C@](C)(C(=O)O)CC[C@]5(C)CC[C@@]4(C)[C@]3(C)CC[C@@H]12 reported_property=Kis value_observed="69 µM"
compound="C=C(C)[C@@H]1CC[C@]2(C)[C@H](CC=C3[C@@H]4C[C@@](C)(C(=O)O)CC[C@]4(C)CC[C@]32C)[C@@]1(C)CCC(=O)O [KOETJAPIC ACID]" reported_property=Kis value_observed="24 µM"
compound=CO/N=C1/CC[C@]2(C)[C@H]3CC=C4[C@@H]5C[C@](C)(C(=O)O)CC[C@]5(C)CC[C@@]4(C)[C@]3(C)CC[C@H]2C1(C)C reported_property=Kis value_observed="73 µM"
compound=CC1(C)C(=O)CC[C@]2(C)[C@H]3CC=C4[C@@H]5C[C@](C)(C(=O)O)CC[C@]5(C)CC[C@@]4(C)[C@]3(C)CC[C@@H]12 reported_property=Kis value_observed="60 µM"

Shift focus to the following entry.
Enquiry: Consider the compound shown here: `CC1(C)/C(=N\O)CC[C@]2(C)[C@H]3CC=C4[C@@H]5C[C@](C)(C(=O)O)CC[C@]5(C)CC[C@@]4(C)[C@]3(C)CC[C@@H]12` What is its recorded Kis?
Return: 16 µM

---

Target: DNA polymerase beta (Rattus norvegicus) (UniProt P06766)
Test: Activity of rat DNA polymerase beta using variable levels of DNA template primer by Lineweaver-Burke plot
Readings of Kis for the listed compounds
Reply with the number and its unit after it.

chemical_string=CO/N=C1/CC[C@]2(C)[C@H]3CC=C4[C@@H]5C[C@](C)(C(=O)O)CC[C@]5(C)CC[C@@]4(C)[C@]3(C)CC[C@H]2C1(C)C system_name="DNA polymerase beta (Rattus norvegicus) (UniProt P06766)" value_observed="9.1 µM"
chemical_string=C=C(C)[C@@H]1CC[C@]2(C)[C@H](CC=C3[C@@H]4C[C@@](C)(C(=O)O)CC[C@]4(C)CC[C@]32C)[C@@]1(C)CCC(=O)O system_name="DNA polymerase beta (Rattus norvegicus) (UniProt P06766)" value_observed="5.6 µM"
chemical_string=CC1(C)C(=O)CC[C@]2(C)[C@H]3CC=C4[C@@H]5C[C@](C)(C(=O)O)CC[C@]5(C)CC[C@@]4(C)[C@]3(C)CC[C@@H]12 system_name="DNA polymerase beta (Rattus norvegicus) (UniProt P06766)" value_observed="5.5 µM"
chemical_string=CC1(C)/C(=N\OCc2ccccc2)CC[C@]2(C)[C@H]3CC=C4[C@@H]5C[C@](C)(C(=O)O)CC[C@]5(C)CC[C@@]4(C)[C@]3(C)CC[C@@H]12 system_name="DNA polymerase beta (Rattus norvegicus) (UniProt P06766)" value_observed="37 µM"

Shift focus to the following entry.
Enquiry: Lab request: please report Kis under test system DNA polymerase beta (Rattus norvegicus) (UniProt P06766) for `CC1(C)[C@H](O)CC[C@]2(C)[C@H]3CC=C4[C@@H]5C[C@](C)(C(=O)O)CC[C@]5(C)CC[C@@]4(C)[C@]3(C)CC[C@@H]12`
Return: 4.2 µM

---

Molecular target: DNA polymerase beta (Rattus norvegicus) (UniProt P06766)
Assay: Activity of rat DNA polymerase beta using variable levels of DNA template primer by Lineweaver-Burke plot
Exam item: assign TRUE to entries whose Kii is below 20 µM and FALSE to entries at or above 20 µM. Note that a value of exactly 20 µM receives FALSE.

chemical_string=CC1(C)[C@H](O)CC[C@]2(C)[C@H]3CC=C4[C@@H]5C[C@](C)(C(=O)O)CC[C@]5(C)CC[C@@]4(C)[C@]3(C)CC[C@@H]12 label_value=TRUE
chemical_string=CO/N=C1/CC[C@]2(C)[C@H]3CC=C4[C@@H]5C[C@](C)(C(=O)O)CC[C@]5(C)CC[C@@]4(C)[C@]3(C)CC[C@H]2C1(C)C label_value=FALSE
chemical_string=C=C(C)[C@@H]1CC[C@]2(C)[C@H](CC=C3[C@@H]4C[C@@](C)(C(=O)O)CC[C@]4(C)CC[C@]32C)[C@@]1(C)CCC(=O)O label_value=TRUE
chemical_string=CC1(C)C(=O)CC[C@]2(C)[C@H]3CC=C4[C@@H]5C[C@](C)(C(=O)O)CC[C@]5(C)CC[C@@]4(C)[C@]3(C)CC[C@@H]12 label_value=FALSE

We now examine a further molecule.
Enquiry: Here's an entry: `CC1(C)/C(=N\OCc2ccccc2)CC[C@]2(C)[C@H]3CC=C4[C@@H]5C[C@](C)(C(=O)O)CC[C@]5(C)CC[C@@]4(C)[C@]3(C)CC[C@@H]12` . Is its Kii below 20 µM?
Return: FALSE

---

Readings of IC50 for the listed molecules
Biological target: DNA polymerase beta (Rattus norvegicus, UniProt P06766)
Only the number, expressed in µM, is required.

molecule=CC1(C)C(=O)CC[C@]2(C)[C@H]3CC=C4[C@@H]5C[C@](C)(C(=O)O)CC[C@]5(C)CC[C@@]4(C)[C@]3(C)CC[C@@H]12 reported_property=IC50 measurement_unit=µM value_observed=22

Enquiry: Lab request: please report IC50 under test system DNA polymerase beta (Rattus norvegicus, UniProt P06766) for `CC1(C)/C(=N\O)CC[C@]2(C)[C@H]3CC=C4[C@@H]5C[C@](C)(C(=O)O)CC[C@]5(C)CC[C@@]4(C)[C@]3(C)CC[C@@H]12`
Return: 16

Enquiry: Proceed to CC1(C)[C@H](O)CC[C@]2(C)[C@H]3CC=C4[C@@H]5C[C@](C)(C(=O)O)CC[C@]5(C)CC[C@@]4(C)[C@]3(C)CC[C@@H]12 [KATONIC ACID]
Return: 36

Values from ChEMBL document CHEMBL1144085
